Quick reference: Plant response rating, Signalgrass of the listed items.
Tested on: broadleaf signalgrass
Assay Explanation: Test F preemergence test
Type: in vivo, Brachiaria platyphylla
Particulars: Preemergence, 62 g ai/ha; scale 0 to 100
Keep the answer to the number alone.

Examples with answers:
[
  {
    "Molecule": "Cc1cc[n+]([O-])c(S(=O)(=O)C(Cl)c2c(C(F)(F)F)nn(C)c2OCC(F)(F)F)c1 (racemic)",
    "Recorded Value": 65
  },
  {
    "Molecule": "CC(c1c(C(F)(F)F)nn(C)c1OCC(F)(F)F)S(=O)(=O)c1cccc[n+]1[O-] (racemic)",
    "Recorded Value": 75
  },
  {
    "Molecule": "CCn1nc(C(F)(F)F)c(CS(=O)(=O)c2cccc[n+]2[O-])c1OCC(F)(F)F",
    "Recorded Value": 100
  }
]

Query: Look up Plant response rating, Signalgrass for this molecule: CC(Oc1c(CS(=O)(=O)c2cccc[n+]2[O-])c(C(F)(F)F)nn1C)C(F)(F)F (stereo not shown)
Response: 100

* * *

Quick reference: Soybean plant response rating of the listed items.
System: soybean
Assay Explanation: Test C pre-/postemergence test
Format: in vivo, Glycine max
Particulars: 125 g ai/ha, preemergence; scale 0 (no effect) to 100 (complete control)
Keep the answer to the number alone.

[
  {
    "Compound": "CCc1cc[n+]([O-])c(S(=O)(=O)Cc2c(C(F)(F)F)nn(C)c2OC(F)F)c1 [Compound 102]",
    "Soybean plant response rating": 65
  },
  {
    "Compound": "CCn1nc(C(F)(F)F)c(CS(=O)(=O)c2cc(C)cc[n+]2[O-])c1OCC(F)(F)F [Compound 64]",
    "Soybean plant response rating": 70
  }
]

Query: Checklist item: Soybean plant response rating tested on soybean, entry Cn1nc(C(F)(F)F)c(C[S+]([O-])c2cc(Br)cc[n+]2[O-])c1Cl (racemic) [Compound 35] , value?
Response: 10

Query: Checklist item: Soybean plant response rating tested on soybean, entry Cc1cc[n+]([O-])c(S(=O)(=O)Cc2c(C(F)(F)F)nn(C)c2OC(C)C(F)(F)F)c1 (stereo not shown) [Compound 96] , value?
Response: 40

* * *

Test system: giant foxtail
Assay Explanation: Test A pre-/postemergence greenhouse test
Assay type: in vivo, Setaria faberi
Particulars: Preemergence, 125 g ai/ha; 0 to 100 scale, 0 no effect, 100 complete control
Hi, to clarify the labels: y covers Foxtail, Giant plant response rating from 90 upward, n covers anything below 90.

// known answers, use as guide
[
  {
    "Compound": "Cn1nc(C(F)(F)F)c(C[S+]([O-])c2c(F)ccc[n+]2[O-])c1Cl (stereo not drawn) [Compound 52]",
    "Label Value": "n"
  },
  {
    "Compound": "CCc1cc[n+]([O-])c([S+]([O-])Cc2c(C(F)(F)F)nn(C)c2OC(F)F)c1 (stereo not drawn) [Compound 101]",
    "Label Value": "y"
  },
  {
    "Compound": "Cn1nc(C(F)(F)F)c(CS(=O)(=O)c2cccc[n+]2[O-])c1Cl [Compound 9]",
    "Label Value": "y"
  },
  {
    "Compound": "Cc1cc[n+]([O-])c(S(=O)(=O)Cc2c(C(F)(F)F)nn(C)c2OC(C)C(F)(F)F)c1 (stereo not drawn) [Compound 96]",
    "Label Value": "y"
  }
]

Query: State whether the measured Foxtail, Giant plant response rating reaches 90, counting equality as reaching it, for CC(C)c1cc[n+]([O-])c(S(=O)(=O)Cc2c(C(F)(F)F)nn(C)c2OC(F)F)c1 [Compound 110]
Response: n

Query: State whether the measured Foxtail, Giant plant response rating reaches 90, counting equality as reaching it, for Cn1nc(C(F)(F)F)c(CS(=O)(=O)c2ccc(F)c[n+]2[O-])c1OCC(F)(F)F [Compound 106]
Response: n

Query: State whether the measured Foxtail, Giant plant response rating reaches 90, counting equality as reaching it, for Cn1nc(C(F)(F)F)c(C[S+]([O-])c2cc(C3CC3)cc[n+]2[O-])c1OC(F)F (stereo not drawn) [Compound 120]
Response: y

Query: State whether the measured Foxtail, Giant plant response rating reaches 90, counting equality as reaching it, for Cc1cc[n+]([O-])c(S(=O)(=O)Cc2c(C(F)(F)F)nn(CC(F)(F)F)c2Cl)c1 [Compound 49]
Response: n

Query: State whether the measured Foxtail, Giant plant response rating reaches 90, counting equality as reaching it, for Cn1nc(C(F)(F)F)c(C[S+]([O-])c2cc(Cl)cc[n+]2[O-])c1OCC(F)(F)F (stereo not drawn) [Compound 68]
Response: n

Query: State whether the measured Foxtail, Giant plant response rating reaches 90, counting equality as reaching it, for Cn1nc(C(F)(F)F)c(C[S+]([O-])c2ccc(F)c[n+]2[O-])c1OCC(F)(F)F (stereo not drawn) [Compound 67]
Response: y

Query: State whether the measured Foxtail, Giant plant response rating reaches 90, counting equality as reaching it, for Cn1nc(C(F)(F)F)c(C[S+]([O-])c2cccc[n+]2[O-])c1OC(F)F (stereo not drawn) [Compound 3]
Response: y

* * *

Test system: woolly cupgrass
Assay Explanation: Test C pre-/postemergence test
Assay type: in vivo, Eriochloa villosa
Particulars: Postemergence, 125 g ai/ha; scale 0 to 100, 0 no effect, 100 complete control
Measured Quantity: Plant response rating, Cupgrass, Woolly
Keep the answer to the number alone.

[
  {
    "Molecule": "Cc1cc[n+]([O-])c(S(=O)(=O)Cc2c(C(F)(F)F)nn(C)c2OC(F)F)c1",
    "Plant response rating, Cupgrass, Woolly": 50
  },
  {
    "Molecule": "Cn1nc(C(F)(F)F)c(C[S+]([O-])c2ccc(Cl)c[n+]2[O-])c1OC(F)F (centres unmarked)",
    "Plant response rating, Cupgrass, Woolly": 50
  },
  {
    "Molecule": "CCn1nc(C(F)(F)F)c(C(C)S(=O)(=O)c2cccc[n+]2[O-])c1OCC(F)(F)F (centres unmarked)",
    "Plant response rating, Cupgrass, Woolly": 0
  },
  {
    "Molecule": "CCn1nc(C(F)(F)F)c(C[S+]([O-])c2cccc[n+]2[O-])c1OCC(F)(F)F (racemic)",
    "Plant response rating, Cupgrass, Woolly": 0
  },
  {
    "Molecule": "Cn1nc(C(F)(F)F)c(C[S+]([O-])c2ccc(F)c[n+]2[O-])c1OC(F)F (centres unmarked)",
    "Plant response rating, Cupgrass, Woolly": 10
  }
]

Query: Look up Plant response rating, Cupgrass, Woolly for this molecule: CC(Oc1c(CS(=O)(=O)c2cccc[n+]2[O-])c(C(F)(F)F)nn1C)C(F)(F)F (centres unmarked)
Response: 20

Query: Look up Plant response rating, Cupgrass, Woolly for this molecule: Cn1nc(C(F)(F)F)c(C[S+]([O-])c2ccc(Cl)c[n+]2[O-])c1OCC(F)(F)F (racemic)
Response: 0

Query: Look up Plant response rating, Cupgrass, Woolly for this molecule: Cn1nc(C(F)(F)C(F)(F)F)c(C[S+]([O-])c2cccc[n+]2[O-])c1OCC(F)(F)F (centres unmarked)
Response: 40

* * *

Quick reference: Black Mustard plant response rating of the listed items.
Test system: mustard
Assay Explanation: Test F preemergence test
Format: in vivo, Brassica nigra
Particulars: 62 g ai/ha, Preemergence; scale 0 to 100
Keep the answer to the number alone.

[
  {
    "Compound": "Cc1cc[n+]([O-])c([S+]([O-])Cc2c(C(F)(F)F)nn(C)c2OC(F)F)c1 (stereo not shown) [Compound 1]",
    "Black Mustard plant response rating": 100
  },
  {
    "Compound": "Cn1nc(C(F)(F)F)c(C[S+]([O-])c2ccc(F)c[n+]2[O-])c1OC(F)F (stereo not shown) [Compound 58]",
    "Black Mustard plant response rating": 60
  },
  {
    "Compound": "Cc1cc[n+]([O-])c(S(=O)(=O)Cc2c(C(F)(F)F)nn(C)c2OCC(F)(F)F)c1 [Compound 31]",
    "Black Mustard plant response rating": 100
  }
]

Please look at the following compound next.
Query: Checklist item: Black Mustard plant response rating tested on mustard, entry Cc1cc[n+]([O-])c(S(=O)(=O)Cc2c(C(F)(F)F)nn(C)c2Cl)c1 [Compound 19] , value?
Response: 100

* * *

Test system: barnyardgrass
Assay Explanation: Test A pre-/postemergence greenhouse test
Type: in vivo, Echinochloa crus-galli
Particulars: Preemergence, 500 g ai/ha; 0 to 100 scale where 0 is no effect and 100 is complete control
Measured Quantity: Plant response rating, Barnyardgrass
Keep the answer to the number alone.

Query: Checklist item: Plant response rating, Barnyardgrass tested on barnyardgrass, entry CC(c1c(C(F)(F)F)nn(C)c1Cl)S(=O)(=O)c1ccc(Cl)c[n+]1[O-] (racemic) , value?
Response: 100

Query: Checklist item: Plant response rating, Barnyardgrass tested on barnyardgrass, entry Cn1nc(C(F)(F)F)c(C[S+]([O-])c2cccc[n+]2[O-])c1OCC(F)F (stereo not shown) , value?
Response: 100

Query: Checklist item: Plant response rating, Barnyardgrass tested on barnyardgrass, entry CC(Oc1c(CS(=O)(=O)c2ccc(Cl)c[n+]2[O-])c(C(F)(F)F)nn1C)C(F)(F)F (stereo not shown) , value?
Response: 90

Query: Checklist item: Plant response rating, Barnyardgrass tested on barnyardgrass, entry Cn1nc(C(F)(F)F)c(C[S+]([O-])c2cccc[n+]2[O-])c1Cl (stereo not shown) , value?
Response: 100

Query: Checklist item: Plant response rating, Barnyardgrass tested on barnyardgrass, entry `Cc1cc[n+]([O-])c(S(=O)(=O)Cc2c(C(F)(F)F)nn(CC(F)(F)F)c2Cl)c1` , value?
Response: 90

Query: Checklist item: Plant response rating, Barnyardgrass tested on barnyardgrass, entry Cc1cc[n+]([O-])c([S+]([O-])Cc2c(C(F)(F)F)nn(C)c2OCC(F)(F)F)c1 (racemic) , value?
Response: 100

Query: Checklist item: Plant response rating, Barnyardgrass tested on barnyardgrass, entry Cn1nc(C(F)(F)F)c(C[S+]([O-])c2ccc(Cl)c[n+]2[O-])c1Cl (racemic) , value?
Response: 100

Query: Checklist item: Plant response rating, Barnyardgrass tested on barnyardgrass, entry `Cc1cc[n+]([O-])c(S(=O)(=O)Cc2c(C(F)(F)F)nn(C)c2OCC(F)(F)F)c1` , value?
Response: 100

Query: Checklist item: Plant response rating, Barnyardgrass tested on barnyardgrass, entry Cn1nc(C(F)(F)F)c(C[S+]([O-])c2ccc(Br)c[n+]2[O-])c1OC(F)F (racemic) , value?
Response: 100

Query: Checklist item: Plant response rating, Barnyardgrass tested on barnyardgrass, entry C#CCOc1c(C[S+]([O-])c2cccc[n+]2[O-])c(C(F)(F)F)nn1C (stereo not shown) , value?
Response: 100

Query: Checklist item: Plant response rating, Barnyardgrass tested on barnyardgrass, entry Cn1nc(C(F)(F)F)c(C[S+]([O-])c2ccc(F)c[n+]2[O-])c1OCC(F)(F)F (stereo not shown) , value?
Response: 100

Query: Checklist item: Plant response rating, Barnyardgrass tested on barnyardgrass, entry `Cn1nc(C(F)(F)F)c(CS(=O)(=O)c2cc(F)cc[n+]2[O-])c1Cl` , value?
Response: 60

Query: Checklist item: Plant response rating, Barnyardgrass tested on barnyardgrass, entry `Cn1nc(C(F)(F)F)c(CS(=O)(=O)c2ccc(Cl)c[n+]2[O-])c1OCC(F)(F)F` , value?
Response: 90

Query: Checklist item: Plant response rating, Barnyardgrass tested on barnyardgrass, entry CCn1nc(C(F)(F)F)c(C[S+]([O-])c2cccc[n+]2[O-])c1OCC(F)(F)F (racemic) , value?
Response: 100

Query: Checklist item: Plant response rating, Barnyardgrass tested on barnyardgrass, entry CC(Oc1c(CS(=O)(=O)c2cccc[n+]2[O-])c(C(F)(F)F)nn1C)C(F)(F)F (stereo not shown) , value?
Response: 100

Query: Checklist item: Plant response rating, Barnyardgrass tested on barnyardgrass, entry CC(c1c(C(F)(F)F)nn(CC(F)(F)F)c1Cl)S(=O)(=O)c1ccc(Cl)c[n+]1[O-] (stereo not shown) , value?
Response: 100
